The reported numbers originate from patent US11098055B2.

MIC reference
Test system: C. krusei ATCC 6258
Assay: Anti-Fungal (Candida) Activity Assay, broth microtiter MIC
Assay type: cell-based, Candida krusei
Conditions: Pichia kudriavzevii, ATCC6258, 48 h, Table 3a; 3 replicates; MIC read at 48 h

Below: 5 molecules and their reported MIC.
{"columns": ["molecule", "MIC"],
 "data": [
  ["CCOC(=O)c1sc2c(c1C)c(=O)n(C(C)(C)C(=O)N1CCCC1)c(=O)n2C[C@H](OC1CCOCC1)c1ccccc1OC [Compound I-3]", "0.25 to 1 µg/mL"],
  ["CCOC(=O)c1sc2c(c1C)c(=O)n(C(C)(C)C(=O)NC(C)C)c(=O)n2C[C@H](OCCOC)c1cc(F)ccc1OC [Compound I-11]", "2.1 to 4 µg/mL"],
  ["CCNC(=O)C(C)(C)n1c(=O)c2c(C)c(C(=O)OCC)sc2n(C[C@H](OC2CCOCC2)c2ccccc2OC)c1=O [Compound I-1]", "0.25 to 1 µg/mL"],
  ["CCOC(=O)c1sc2c(c1C)c(=O)n(C(C)(C)C(=O)N1CCCC1)c(=O)n2C[C@H](OCCO)c1cc(F)ccc1OC [Compound I-12]", "2.1 to 4 µg/mL"],
  ["CCOC(=O)c1sc2c(c1C)c(=O)n(C(C)(C)C(=O)N1CCCCC1)c(=O)n2C[C@H](OC1CCOCC1)c1ccccc1OC [Compound I-2]", "0.25 to 1 µg/mL"]
]}

Record request: MIC value, item CCOC(=O)c1sc2c(c1C)c(=O)n(C(C)(C)C(N)=O)c(=O)n2C[C@H](OCCOC)c1cc(F)ccc1OC [Compound I-10] > 4.1 µg/mL

Which MIC reading was recorded for the molecule CCOC(=O)c1sc2c(c1C)c(=O)n(C(C)(C)C(=O)NC(C)C)c(=O)n2C[C@H](OC(C)C)c1ccccc1OC [Compound I-9] ? 2.1 to 4 µg/mL

Any idea what its MIC is? The molecule is CCOC(=O)c1sc2c(c1C)c(=O)n(C(C)(C)C(=O)N1CCOCC1)c(=O)n2C[C@H](OC(C)C)c1ccccc1OC [Compound I-5] > 4.1 µg/mL

So what's the measured MIC for this one? CCOC(=O)c1sc2c(c1C)c(=O)n(C(C)(C)C(N)=O)c(=O)n2C[C@H](OCCO)c1cc(F)ccc1OC [Compound I-17] > 4.1 µg/mL

Look at this molecule and give its reported MIC. CCOC(=O)c1sc2c(c1C)c(=O)n(C(C)(C)C(=O)NC(C)C)c(=O)n2C[C@H](OCCO)c1cc(F)ccc1OC [Compound I-18] 0.25 to 1 µg/mL

Quick check: MIC of CCOC(=O)c1sc2c(c1C)c(=O)n(C(C)(C)C(=O)N1CCCC1)c(=O)n2C[C@H](OC(C)C)c1ccccc1OC [Compound I-7] ? 2.1 to 4 µg/mL

Bench note: what MIC did CCOC(=O)c1sc2c(c1C)c(=O)n(C(C)(C)C(=O)NC(C)C)c(=O)n2C[C@H](OC1CCOCC1)c1ccccc1OC [Compound I-8] show? 0.25 to 1 µg/mL
